System: HCV Replicon IB
Assay: HCV replicon assay in Huh-7 cells, genotype 1b (Rluc luciferase readout)
Assay type: cell-based, hepatitis C virus
Settings: Hepatitis C virus, Huh-7, 72 h, HCV1B replicon, Huh-7 cells, 3 days; read-out: EC50_HCV1B_
OBSERVED PROPERTY: EC50 (nM)

INSERT INTO results (mol, measured) VALUES
  ('CC(C)(C)c1cc(C2CC2)cc2c(N)cc(-c3nnc(NCCCC(F)(F)F)o3)nc12', 10.6),
  ('Cc1cc(-c2nnc(NCC3OCCO3)o2)nc2c(C(C)(C)C)cc(OCC(F)(F)F)cc12', 1.57),
  ('CCCNc1nnc(-c2cc(N)c3cc(C4CC4)cc(C(C)(C)C)c3n2)o1', 2.01),
  ('Cc1cc(C(=O)NCc2cnccn2)nc2c(-c3ccccc3)cc(C3CC3)cc12', 65.5),
  ('Cc1cc(-c2nnc(NCC3OCCO3)o2)nc2c(C(C)(C)C)cc(OCC(F)(F)C(F)(F)F)cc12', 233),
  ('Cc1cc(-c2nnc(NCc3ccn[nH]3)o2)nc2c(C(C)(C)C)cc(OCC(F)(F)F)cc12', 19.6),
  ('Cc1cc(-c2nnc(NCCCS(N)(=O)=O)o2)nc2c(C(C)(C)C)cc(C3CC3)cc12', 1200),
  ('Cc1cc(-c2nnc(N[C@H]3C[C@@H](O)C3)o2)nc2c(C(C)(C)C)cc(C3CC3)cc12', 3.24),
  ('Cc1cc(C(=O)NC[C@@H]2CC3(CCN2)OCCO3)nc2c(C(C)(C)C)cc(C3CC3)cc12', 834),
  ('Cc1cc(-c2nnc(Nc3cccnc3)o2)nc2c(C(C)(C)C)cc(OCC(F)(F)F)cc12', 4.1),
  ('CC(C)(C)c1cc(OCC(F)(F)F)cc2c(Cl)cc(-c3nnc(NCC4OCCO4)o3)nc12', 5.85);

----------
Reported inhibition at 10 µM values follow for various molecules
System: HCV Replicon IB
Assay: HCV replicon assay in Huh-7 cells, genotype 1b (Rluc luciferase readout)
Format: cell-based, hepatitis C virus
Conditions: Hepatitis C virus, 72 h; 10 uM; 1b-Rluc replicon, Huh-7 cells, 3 days; read-out: Inhibition @ 10 uM in 1b-Rluc
OBSERVED PROPERTY: inhibition at 10 µM (%)

INSERT INTO results (molecule, observed_property, result_units, measured) VALUES
  ('Cc1cc(C(=O)NCc2cc(CN3CCOCC3)ccn2)nc2c(C(F)(F)F)cc(C3CC3)cc12 [Compound 130]', 'inhibition at 10 µM', '%', 84.7),
  ('CCC(=O)CNC(=O)c1cc(C)c2cc(C3CC3)cc(C(F)(F)F)c2n1 [Compound 95]', 'inhibition at 10 µM', '%', 100),
  ('Nc1cc(C(=O)NCc2cccc(F)n2)nc2c(C(F)(F)F)cc(OC(F)F)cc12 [Compound 195]', 'inhibition at 10 µM', '%', 99.7),
  ('COc1cc(C(F)(F)F)c2nc(-c3nnc(NCC(=O)N(C)C)o3)cc(C)c2c1 [Compound 279]', 'inhibition at 10 µM', '%', 98.4),
  ('Cc1cc(C(=O)NCc2cc(C#N)ccn2)nc2c(C(F)(F)F)cc(C3CC3)cc12 [Compound 110]', 'inhibition at 10 µM', '%', 99.9),
  ('O=C(NCC1CS(=O)(=O)CCN1)c1cc(Cl)c2cc(OC(F)F)cc(C(F)(F)F)c2n1 (stereo not drawn) [Compound 197]', 'inhibition at 10 µM', '%', 92.8),
  ('Cc1cc(C(=O)NCC2(C)COC2)nc2c(C(F)(F)F)cc(C3CC3)cc12 [Compound 103]', 'inhibition at 10 µM', '%', 96.1),
  ('COc1cc(C(F)(F)F)c2nc(-c3nnc(NCC4OCCO4)o3)cc(C)c2c1 [Compound 278]', 'inhibition at 10 µM', '%', 99.9),
  ('Cc1cc(-c2nnc(NCC(C)(C)CO)o2)nc2c(C(F)(F)F)cc(C3CC3)cc12 [Compound 260]', 'inhibition at 10 µM', '%', 96.7);
